Origin of values: ChEMBL document CHEMBL1126215

Assay: Compound was evaluated for its pKa values which is measured by titration method using a radiometer VIT90 video titrator
Type: physicochemical
So I've got a bunch of compounds here, and I need their pKa values.
Please respond with just the number, no unit label.

Data request, read-out pKa, for C[C@](Cc1c[nH]c2ccccc12)(NC(=O)OC1C2CC3CC(C2)CC1C3)C(=O)NC[C@@H](NC(=O)CP(C)(=O)O)c1ccccc1 (stereo partly specified)
3.8

// repeat for C[C@@](Cc1c[nH]c2ccccc12)(NC(=O)OC1C2CC3CC(C2)CC1C3)C(=O)NC[C@@H](NC(=O)CCn1nn[nH]c1=S)c1ccccc1 (stereo partly specified) and report
4.3

// repeat for C[C@@](Cc1c[nH]c2ccccc12)(NC(=O)OC1C2CC3CC(C2)CC1C3)C(=O)NC[C@@H](NC(=O)CSc1n[nH]c(=O)[nH]1)c1ccccc1 (stereo partly specified) and report
7.7
